Test system: Mycobacteroides abscessus
Experiment Summary: Binding affinity to Mycobacterium abscessus N-terminal His-tagged 3C protease linked full length tRNA (m1-G37) methyltransferase expressed in Escherichia coli BL21(DE3) assessed as change in melting temperature at 5 mM by SYPRO Orange dye based DSF assay
Item-by-item account of ΔTm
Give your result in °C as a bare value.

{"Compound Smiles": "O=C(O)c1ccc2cc[nH]c2c1", "Quantitative Result": -0.6}
{"Compound Smiles": "OB(O)c1ccc2[nH]ccc2c1", "Quantitative Result": 1.3}
{"Compound Smiles": "COc1cccc(-c2cc(N)n[nH]2)c1", "Quantitative Result": -0.5}
{"Compound Smiles": "Nc1cc(-c2ccccc2)n[nH]1", "Quantitative Result": 1.5}

Query: Lab note: need ΔTm with Mycobacteroides abscessus for entry Nc1cc(-c2ccc3cc[nH]c3c2)[nH]n1 , please look it up.
Response: 4.8

Query: Field entry: Cc1ccc(-c2cc(N)[nH]n2)cc1
Response: 1.4

Query: Field entry: CCOC(=O)c1cn[nH]c1
Response: 4

Query: Field entry: OB(O)c1ccc2cc[nH]c2c1
Response: 4

Query: Field entry: COc1ccc(-c2cc(N)[nH]n2)cc1
Response: 3

Query: Field entry: CCNC(=O)c1cn[nH]c1
Response: 0.4

All values here come from ChEMBL document CHEMBL4406805.
